test_method_notes: Competitive inhibition of Prostaglandin receptor in rat stomach fundus strip assessed as inhibition of PGE1-induced contraction by kymography
Assay type: tissue-based
assay_metric: pIC50
Lab note: report pIC50 as minus log10 of the concentration in molar units, number only.

Exercise: # query: pIC50 of entry CCCCCC(O)/C=C/c1[nH]c2ccccc2c1CCCCCCC(=O)O (stereo unspecified)
Solution: 4.93
